assay: folding stability dG unfold from trypsin proteolysis; higher = more stable
# label = class 1 if folding stability dG unfold >= 3 kcal/mol else class 0

INSERT INTO assay_data (chain, assigned_category) VALUES
  ('SAGSSTPGSEVVRVTSEVSEGESNRTVSYTTYVFEPGGPALRPLSTSTTTVPAAPGVPEGGTKTISLPGSAG [r5_861_JUSTAS]', 'class 0'),
  ('SAGGSAGGSAGMTKIVIQYEVPPDKPPPDLEEIKKSLPGAENIEITREELPNGTWVYTVESAGGSAGGSAGG [r17_205_JUSTAS]', 'class 0'),
  ('SAGGSAGGSAGGAPLVEVEEVETRRVKDPATKRWYRRTRVRVRNKETGEWYELEFVEPLSAGGSAGGSAGGS [r10_535_TrROS_Hall]', 'class 0'),
  ('SAGGSAGGSAKKPTAEEILKKLKLPEGAKIVKIEVEYDKKTKKVTIKIEIKVNGKTYTFEIKSAGGSAGGSA [r18_354_TrROS_Hall]', 'class 0'),
  ('SAGGSAGGSAGGPLPGKPPLRLKLFTLTVRTRTYRKTEDGTWEEVEESEAEITVLVLEPVSAGGSAGGSAGG [r7_506_TrROS_Hall]', 'class 1'),
  ('SAGGSAGGSAGGMTAIIVESEEEAKKIAEEKGIKDVKFIPKGKPELLKPDVDKVIKINKKSAGGSAGGSAGG [r7_381_JUSTAS]', 'class 0');

----------
test: folding stability dG unfold (combined trypsin and chymotrypsin); higher = more stable
experimental-endpoint: folding stability dG unfold

INSERT INTO assay_data (chain, experimental_endpoint, measured_value) VALUES
  ('SAGGGLANLSLEEIRQLLLEKFPELPVEVKVTPVDEKDGVVLVTVRPPLPDGSTVESEEELPLEPGLSAGGS [r16_564_JUSTAS]', 'folding stability dG unfold', '0.229 kcal/mol'),
  ('SAGGSAGGSAGMPLYIIEVEKEDGSKITITIPENMTEEEIKKIAEELGIKKVEIIKKEDLSAGGSAGGSAGG [r11_490_TrROS_Hall]', 'folding stability dG unfold', '1.84 kcal/mol'),
  ('SAGGSAGGSAGGPFFMPEQKGTIPADELQKKGGNLTSVEIKVRPWMMELEIEIVYPPGDKSAGGSAGGSAGG [r7_116_TrROS]', 'folding stability dG unfold', '0.0937 kcal/mol'),
  ('SAGGSAGGSAKMIFVKNEDGTITMFTLNEDGYLTVTTVTLDKKTKKMTVETKTIKLTDPELLSAGGSAGGSA [r18_503_TrROS_Hall]', 'folding stability dG unfold', '2.14 kcal/mol');

----------
Entries and their folding stability dG unfold
assay: folding stability dG unfold from chymotrypsin proteolysis; higher = more stable
experimental-endpoint: folding stability dG unfold (kcal/mol)

INSERT INTO measurements (chain, measured_value) VALUES
  ('SAGGSAGGSAGGAAPDDVKIEIEWDVGVMTMEMMNPGGQPHKMYMIMVSLKIEIEPNADSAGGSAGGSAGGS [r10_1212_TrROS]', 5.09),
  ('SAGGPKLFVEEDPVEDGVVVVVETNADPVALLKALEKLFGRPVKDVRFERLPDGRLIAVARIPKDALSAGGS [r16_605_TrMRF]', 2.68),
  ('SMKIIIEIEVEPGKTEEEIKEEAEALAKELAKKLGLPKEAKVKIEKVKLEDGKLRYIITIEVDGKTIEFESA [r9_776_TrROS_Hall]', 3.63),
  ('SAGGSAGGSAGGSMATITPEGDKYLVTITNPDGSTTTKEFDSLEEVKKLPSSYPIEFSDSAGGSAGGSAGGS [r4_447_JUSTAS]', 0.802),
  ('SAGGEKVKLRIYVYRRTVERDPATGELRERYELVEEIEIEVEPGETLEDILAKLKLPPGWRIVRVERESAGG [r13_716_TrROS_Hall]', 5.42),
  ('SAGGSAGGSAAPEALPPRLVVPRPVLIVDKAPLEEVEVEELRKAAEEFARAVPDAVVLVDEESAGGSAGGSA [r18_499_TrMRF]', 0.788),
  ('SAGGIRIRFWVPSPEEAREMAETIAKWLMEEHPGAKIKIEPKKVEPNPDNGYYRVEVPIKIVLPGQPISAGG [r13_585_TrROS]', 1.89);

----------
assay: folding stability dG unfold from trypsin proteolysis; higher = more stable
Entries and their folding stability dG unfold
experimental-endpoint: folding stability dG unfold (kJ/mol)

INSERT INTO measurements (chain, experimental_endpoint, measured_value) VALUES
  ('SAGGSAMTTVTWTFPPSTSVEEAIEALKAQLEAERNEKIEIPSISVSTTGDTITVTLPIKIEPLPASAGGSA [r15_105_JUSTAS]', 'folding stability dG unfold', 7.79),
  ('SAGGSAGGSMKNIKEIKVERRKLPNGGEYYVVTITYPDGKEIIIEMSPEETLEEALEKAKELSSAGGSAGGS [r12_1047_JUSTAS]', 'folding stability dG unfold', 12),
  ('TTKTYTTPVIKKMTVTFDKTEGNEATLTITATLPDGTPVTLPFPLTLETGKLDPAVVEAAIKAAVATAIAQS [r1_124_JUSTAS]', 'folding stability dG unfold', 3.73),
  ('SAGGSASNIKTEEKEYPDGKVVVKYSSDPNITYVYYYPPGGLELVETLDSNGNVISKKLVPKGKLISAGGSA [r15_419_JUSTAS]', 'folding stability dG unfold', 2.54),
  ('SAGGKGPKKIILPLKFKIKTKPNEKKSKIKFKLSLKLFPKAKKVEVKSSIKPLKNNYALLDFDIVIEASAGG [r13_872_TrMRF]', 'folding stability dG unfold', 14.8),
  ('SAGGSAGGSPEVLASFPLKDGSVVIVARRPGEIRVLVVKSSDLENIPELKDIKVFPTFGDDPVSAGGSAGGS [r12_343_TrMRF]', 'folding stability dG unfold', 4.31),
  ('SAGGSAGGSAGMTPEEEVEYEIEVPDPNSDNLKTKIKLKFPVGTPEEEIKKKAEELAKKLSAGGSAGGSAGG [r11_516_JUSTAS]', 'folding stability dG unfold', 6.97),
  ('SAGGPDWKTVEVEIQVKDPEDRPEAIEEAEEWAQELAENNPGYKIKGVDVEIWPHNGWYQIRIPITVESAGG [r13_305_TrROS]', 'folding stability dG unfold', 3.07),
  ('SANDDDWVTVIFEIPIVRKDPDGKPEKHPFRLMVQVHPDGRVEINIMYPNGRPIASQTVPPGQTLEDFISAG [r14_559_TrROS]', 'folding stability dG unfold', 11),
  ('SAGGSAGGSMKITKSPSGYYTVTINLPNGTTVEIKVSTSDPNATDEQIIEIAKPKAEEILKKSSAGGSAGGS [r12_642_JUSTAS]', 'folding stability dG unfold', 4.84),
  ('SALEEEVKKRAEEIAQEIKEKFPNVKEKVVEIELPLPNGTKLKATVTISRSINEKGIEYKIKIEVSEGLSAG [r14_788_JUSTAS]', 'folding stability dG unfold', 13.5),
  ('SAGGSAGGSAGGMYITFDFEVPPNNPEVIEELKSKGIEYKKIEPKPDKVKVKVIIPEKLLSAGGSAGGSAGG [r7_41_JUSTAS]', 'folding stability dG unfold', -2.67),
  ('SAGGSAAEPVVLVFKTPESEALITVPPAFVQRVTVDPGGTVRRITVDLPDGTRTFLITDDSIFVDDSAGGSA [r15_598_TrMRF]', 'folding stability dG unfold', 3.15),
  ('SAFRIKIELWNPNGKPQEHTFPVPPGDPDKLVEEIEDEVQKHHPNDGYKMRAEILEVTPNGWVTIRIWYSAG [r14_622_TrROS]', 'folding stability dG unfold', 11.1);

----------
test: folding stability dG unfold from chymotrypsin proteolysis; higher = more stable
experimental-endpoint: folding stability dG unfold (kcal/mol)

INSERT INTO results (chain, experimental_endpoint, measured_value) VALUES
  ('SAGGSAGGSAVYRTEDGRWVLVVEEVDGELTVHVYRRVDGRWELVETYPLEDLSPEARAALSAGGSAGGSAG [r3_241_TrROS_Hall]', 'folding stability dG unfold', 2.33),
  ('DWLIRIKFTYKGPDGNKHEMKIIVRVPESPEQAKEEVEDIARMIMEEQGYPPENIKKIKVEVIPPGEELTPS [r1_159_TrROS]', 'folding stability dG unfold', 4.2),
  ('SAGGSAGGMPVSVEIELTVPTSPDETPEEALERIREELAPLGVEEVTATPLPDGTVRFRITVPRSAGGSAGG [r6_882_JUSTAS]', 'folding stability dG unfold', 0.504),
  ('SAGGSETLELTIEIPGLGQPVSARSTSFDPEKGLWTAEMKSPVPGLRRTLTYDPVTGTVSSTTTLLSAGGSA [r2_147_JUSTAS]', 'folding stability dG unfold', 0.341);
